tested on: H9; assay: Inhibitory activity against H9 cells uninfected with HIV-1; type: functional, cell-based; conditions: Homo sapiens
Reported IC50 values for a set of compounds
Measurement Label: IC50

Structure Smiles	Measurement Label	Measurement
O=c1c(O)c(-c2ccc(O)c(O)c2)oc2cc(O)cc(O)c12	IC50	< 4 µg/mL
O=c1cc(-c2ccc(O)cc2)oc2cc(O)cc(O)c12	IC50	35 µg/mL
O=c1c(O[C@@H]2O[C@H](CO)[C@@H](O)[C@H](O)[C@H]2O)c(-c2ccc(O)cc2)oc2cc(O)cc(O)c12	IC50	< 100 µg/mL
O=c1cc(-c2ccc(O)cc2)oc2cc(O[C@@H]3O[C@H](CO)[C@@H](O)[C@H](O)[C@H]3O)cc(O)c12	IC50	> 100 µg/mL
